target: Recombinant human ASK1 kinase (Homo sapiens, UniProt Q99683); construct: purchased Invitrogen Inc; experiment: ASK1 kinase HTRF assay (HTRF KinEASE-STK, phosphorylation of biotinylated peptide substrate); format: biochemical; settings: 3 nM ASK1 kinase, 1 uM STK-substrate-biotin, HTRF detection; read-out: EC50
Sequence (Q99683 whole entry): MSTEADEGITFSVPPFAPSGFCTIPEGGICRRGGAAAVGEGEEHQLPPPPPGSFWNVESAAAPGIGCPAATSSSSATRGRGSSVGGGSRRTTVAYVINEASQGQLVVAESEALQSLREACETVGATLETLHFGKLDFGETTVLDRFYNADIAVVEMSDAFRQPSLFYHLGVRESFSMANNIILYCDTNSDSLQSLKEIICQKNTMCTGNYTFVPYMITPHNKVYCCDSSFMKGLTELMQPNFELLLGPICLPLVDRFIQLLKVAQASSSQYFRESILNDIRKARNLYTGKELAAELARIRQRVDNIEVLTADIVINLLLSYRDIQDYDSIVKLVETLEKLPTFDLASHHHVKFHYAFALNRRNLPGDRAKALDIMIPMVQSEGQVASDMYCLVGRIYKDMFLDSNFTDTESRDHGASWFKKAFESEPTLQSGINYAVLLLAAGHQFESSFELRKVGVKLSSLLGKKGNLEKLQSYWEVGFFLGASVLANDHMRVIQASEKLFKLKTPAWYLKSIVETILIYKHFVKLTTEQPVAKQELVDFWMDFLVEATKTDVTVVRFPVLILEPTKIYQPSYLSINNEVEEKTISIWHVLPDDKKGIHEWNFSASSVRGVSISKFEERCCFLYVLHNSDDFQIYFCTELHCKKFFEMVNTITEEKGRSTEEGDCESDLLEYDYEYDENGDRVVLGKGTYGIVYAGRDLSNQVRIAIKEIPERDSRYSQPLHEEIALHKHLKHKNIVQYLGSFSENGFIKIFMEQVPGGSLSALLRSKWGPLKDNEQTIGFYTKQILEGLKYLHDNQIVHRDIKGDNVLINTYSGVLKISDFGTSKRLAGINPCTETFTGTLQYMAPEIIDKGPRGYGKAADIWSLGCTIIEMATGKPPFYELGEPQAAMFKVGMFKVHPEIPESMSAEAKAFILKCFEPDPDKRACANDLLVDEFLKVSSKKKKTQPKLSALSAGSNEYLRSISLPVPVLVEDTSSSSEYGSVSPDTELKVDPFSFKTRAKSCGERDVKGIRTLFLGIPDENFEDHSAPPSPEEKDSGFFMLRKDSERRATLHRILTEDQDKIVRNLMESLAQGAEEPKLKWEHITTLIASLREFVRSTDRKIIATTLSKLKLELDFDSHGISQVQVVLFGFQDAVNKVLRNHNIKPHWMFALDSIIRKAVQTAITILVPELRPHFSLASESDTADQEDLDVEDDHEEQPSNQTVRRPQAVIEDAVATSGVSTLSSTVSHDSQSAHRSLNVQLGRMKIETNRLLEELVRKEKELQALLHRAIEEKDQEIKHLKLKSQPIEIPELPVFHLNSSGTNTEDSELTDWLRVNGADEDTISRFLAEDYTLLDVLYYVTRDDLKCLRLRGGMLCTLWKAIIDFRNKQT
Assign EC50 to each entry below.

COc1ccc(NC(=O)Nc2cccc(-c3nncn3C(C)C)n2)nc1	< 50 nM

Could you tell me EC50 for each of these compounds? They are listed below.
1. Cc1cnc(NC(=O)Nc2cccc(-c3nncn3C(C)C)n2)cc1C
2. CC(C)c1ccnc(NC(=O)Nc2cccc(-c3nncn3C(C)C)n2)c1
3. C[C@H](CO)n1cnnc1-c1cccc(NC(=O)Nc2cc(C(=O)N3CCN(C)CC3)ccn2)n1
4. C[C@H](CO)n1cnnc1-c1cccc(NC(=O)Nc2cc(C(=O)N3CCCC[C@@H]3C)ccn2)n1

**A:**
1: < 50 nM; 2: < 50 nM; 3: < 50 nM; 4: < 50 nM

Hello, I would appreciate it if you could give EC50 for each entry below.
1. CC(C)n1cnnc1-c1cccc(N2CCN(c3ccc(-c4ccc(F)cc4)cn3)C2=O)n1
2. CC(C)n1cnnc1-c1cccc(NC(=O)Nc2cc(C(=O)N3CCCCCC3)ccn2)n1
3. Cc1cccc(NC(=O)Nc2cccc(-c3nncn3C(C)C)n2)n1
4. CC(C)n1cnnc1-c1cccc(NC(=O)Nc2cc(Cl)ccn2)n1

**A:**
< 50 nM
< 50 nM
< 50 nM
< 50 nM

For each entry beneath this line, provide reported EC50.
1. CC(C)n1cnnc1-c1cccc(NC(=O)Nc2cc(NS(=O)(=O)c3ccccc3)ccn2)n1
2. CC(C)n1cnnc1-c1cccc(N2CCN(c3ccc(N4CC5CCC(C4)O5)cn3)C2=O)n1
3. CC(C)n1cnnc1-c1cccc(NC(=O)Nc2cc(C3CCCC3)ccn2)n1
4. Cc1ccc(NC(=O)Nc2cccc(-c3nncn3[C@@H](C)CO)n2)nc1

**A:**
["< 50 nM", "< 50 nM", "< 50 nM", "50 to 500 nM"]

Return reported EC50 values for all items listed beneath this line.
1. CC(C)n1cnnc1-c1cccc(NC(=O)Nc2cc(O)ccn2)n1
2. C[C@H](CO)n1cnnc1-c1cccc(NC(=O)Nc2cc(C(=O)N3CCc4ccccc4C3)ccn2)n1

**A:**
["50 to 500 nM", "< 50 nM"]

Answer for every listed entry: what is its EC50? The entries follow.
1. CC(C)n1cnnc1-c1cccc(N2CCN(c3ccc(N4CCOC[C@@H]4C)cn3)C2=O)n1
2. C[C@H](CO)n1cnnc1-c1cccc(NC(=O)Nc2cc(C(=O)N3CCCc4ccccc43)ccn2)n1
3. CC(C)n1cnnc1-c1cccc(NC(=O)Nc2cc(C(=O)Nc3ccccc3)ccn2)n1
4. CC(C)c1ccc(NC(=O)Nc2cccc(-c3nncn3C(C)C)n2)nc1
5. Cc1ccc(NC(=O)Nc2cccc(-c3nncn3C(C)C)n2)cc1
6. CC(C)n1cnnc1-c1cccc(NC(=O)Nc2cc(NC(=O)c3ccccc3)ccn2)n1

**A:**
["< 50 nM", "< 50 nM", "< 50 nM", "< 50 nM", "50 to 500 nM", "< 50 nM"]

Below is a list of compounds. For each, state its recorded EC50.
1. CC(C)n1cnnc1-c1cccc(NC(=O)Nc2cc(C(=O)N3CCC4(CCCCC4)CC3)ccn2)n1
2. CC(C)n1cnnc1-c1cccc(NC(=O)Nc2ccc(CO)cn2)n1
3. C[C@H](CO)n1cnnc1-c1cccc(NC(=O)Nc2cc(C(=O)N3CCC(N4CCOCC4)CC3)ccn2)n1

**A:**
< 50 nM
< 50 nM
< 50 nM

Would you mind listing EC50 for each of the following compounds?
1. C[C@H](CO)n1cnnc1-c1cccc(NC(=O)Nc2cc(C(=O)N3CCC(F)(F)CC3)ccn2)n1
2. C[C@H](CO)n1cnnc1-c1cccc(NC(=O)Nc2cc(N3CCN(S(C)(=O)=O)CC3)ccn2)n1
3. CC(C)n1cnnc1-c1cccc(NC(=O)Nc2ccc(-c3ccncc3)cn2)n1
4. C[C@H](CO)n1cnnc1-c1cccc(NC(=O)Nc2cc(C(=O)N3CCC[C@@H]4CCCC[C@H]43)ccn2)n1
5. CC1(n2cnnc2-c2cccc(NC(=O)Nc3cc(C(=O)N4CCCCC4)ccn3)n2)CC1
6. CC(C)n1cnnc1-c1cccc(NC(=O)Nc2cc(C(=O)Nc3ccccc3F)ccn2)n1

**A:**
["< 50 nM", "< 50 nM", "< 50 nM", "< 50 nM", "< 50 nM", "< 50 nM"]

**Q:** Which EC50 is reported for this compound? CC(C)n1cnnc1-c1cccc(NC(=O)Nc2ncccc2-c2ccncc2)n1
**A:** 50 to 500 nM

// data source = patent US11427556B2
